# target_or_test_system: hCatK (Homo sapiens, UniProt P43235)
# Sequence (P43235 115-329): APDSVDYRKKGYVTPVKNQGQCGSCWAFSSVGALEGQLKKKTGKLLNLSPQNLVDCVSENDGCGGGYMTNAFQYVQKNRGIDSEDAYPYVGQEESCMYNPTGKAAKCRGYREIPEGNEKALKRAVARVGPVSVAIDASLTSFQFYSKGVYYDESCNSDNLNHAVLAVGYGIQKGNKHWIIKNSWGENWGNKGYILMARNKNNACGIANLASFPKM
# assay_summary: Jump dilution assay for reversibility of hCatK inhibition
# Format: biochemical
# study_conditions: 300× dilution into fluorogenic substrate solution
measured_metric: reversibility of hCatK inhibition

compound | observed
C#CCNC(=O)[C@H](CC(C)(C)F)N[C@@H](c1ccc(-c2ccc(S(C)(=O)=O)cc2)cc1)C(F)(F)F | irreversible
C#CC(C)NC(=O)[C@H](CC(C)(C)F)N[C@@H](c1ccc(-c2ccc(S(C)(=O)=O)cc2)cc1)C(F)(F)F (mixture of isomers) | irreversible
CC(C)(F)C[C@H](N[C@@H](c1ccc(-c2ccc(S(C)(=O)=O)cc2)cc1)C(F)(F)F)C(=O)NCC#CBr | irreversible
